- ASSAYED SYSTEM: High affinity nerve growth factor receptor (Homo sapiens, UniProt P04629)
- Sequence (P04629 whole entry): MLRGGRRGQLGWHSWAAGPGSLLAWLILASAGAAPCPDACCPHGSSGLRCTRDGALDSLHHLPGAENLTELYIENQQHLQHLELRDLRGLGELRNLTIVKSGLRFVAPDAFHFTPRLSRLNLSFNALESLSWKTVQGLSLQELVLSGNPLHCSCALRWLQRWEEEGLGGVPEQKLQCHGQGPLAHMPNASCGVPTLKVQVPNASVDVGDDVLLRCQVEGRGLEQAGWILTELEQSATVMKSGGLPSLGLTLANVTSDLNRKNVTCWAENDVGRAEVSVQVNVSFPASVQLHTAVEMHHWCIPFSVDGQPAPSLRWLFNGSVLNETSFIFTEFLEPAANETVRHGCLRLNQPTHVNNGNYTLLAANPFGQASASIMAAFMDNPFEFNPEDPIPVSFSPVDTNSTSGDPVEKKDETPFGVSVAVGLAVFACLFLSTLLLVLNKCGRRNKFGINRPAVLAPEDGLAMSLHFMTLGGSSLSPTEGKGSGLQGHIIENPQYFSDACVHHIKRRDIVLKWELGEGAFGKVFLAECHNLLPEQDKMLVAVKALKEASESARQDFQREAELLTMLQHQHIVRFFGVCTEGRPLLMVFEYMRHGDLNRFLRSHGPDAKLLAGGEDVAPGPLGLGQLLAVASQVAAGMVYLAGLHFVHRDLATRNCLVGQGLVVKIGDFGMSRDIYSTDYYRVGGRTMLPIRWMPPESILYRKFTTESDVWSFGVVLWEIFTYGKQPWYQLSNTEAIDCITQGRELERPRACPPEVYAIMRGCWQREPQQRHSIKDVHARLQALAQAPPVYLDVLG
- RUN DESCRIPTION: Inhibition of recombinant human TRKa using Ulight-Poly GAT[EAY(1:1:1)]n as substrate incubate for 10 mins by LANCE assay
pIC50: −log10 of the molar value.
QUANTITY MEASURED: pIC50

For record C=CC(=O)N1CCC(Cn2cc(-c3ccc4c(c3)OCO4)c3c(N)ncnc32)CC1 the listed pIC50 is < 5.00

###

pIC50: −log10 of the molar value.
QUANTITY MEASURED: pIC50

Log: Tyrosine-protein kinase SYK (Homo sapiens), compound C=CC(=O)N1CCC(Cn2cc(-c3ccc4c(c3)OCO4)c3c(N)ncnc32)CC1 , pIC50 = < 5.00
